Molecular target: recombinant human Myt1 (full length PKMYT1) (Homo sapiens (Human), UniProt Q99640)
Sequence (Q99640 whole entry): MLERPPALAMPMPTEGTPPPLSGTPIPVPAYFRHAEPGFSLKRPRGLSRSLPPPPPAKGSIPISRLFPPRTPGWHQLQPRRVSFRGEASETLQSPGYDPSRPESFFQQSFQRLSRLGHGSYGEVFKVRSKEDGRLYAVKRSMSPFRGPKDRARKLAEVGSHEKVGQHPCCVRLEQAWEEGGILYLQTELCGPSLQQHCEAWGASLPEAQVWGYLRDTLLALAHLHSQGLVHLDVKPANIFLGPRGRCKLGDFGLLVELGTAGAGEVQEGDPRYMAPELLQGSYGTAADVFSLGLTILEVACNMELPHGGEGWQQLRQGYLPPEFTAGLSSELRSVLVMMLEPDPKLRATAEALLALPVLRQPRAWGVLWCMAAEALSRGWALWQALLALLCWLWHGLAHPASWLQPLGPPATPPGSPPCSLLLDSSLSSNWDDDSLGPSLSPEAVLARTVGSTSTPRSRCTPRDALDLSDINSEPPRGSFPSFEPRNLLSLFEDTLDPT
Assay: Recombinant human Myt1 kinase assay (ADP-Glo)
Conditions: 10 μM ATP
measured.metric: pIC50
Reminder that pIC50 is minus the log10 of a molar concentration.

stdin: API: value(readout= pIC50, system= recombinant human Myt1 (full length PKMYT1) (Homo sapiens (Human), UniProt Q99640), query= Cc1ccc(O)c(C)c1-c1cc(-c2ccc(C(F)(F)F)cc2)nc(C(N)=O)c1N )
stdout: 7.70

stdin: Thanks! And Cc1ccc2[nH]ncc2c1-c1nc(-c2cccnc2Nc2ccnn2C2CC2)nc(C(N)=O)c1N ?
stdout: 6.75

stdin: Thanks! And Cc1ccc2[nH]ncc2c1-c1cc(-c2ccnc(N[C@@H](CO)Cc3ccccc3)n2)nc(C(N)=O)c1N (atropisomer, axis not shown) ?
stdout: 8.70

stdin: Thanks! And Cc1ccc2[nH]ncc2c1-c1cc(-c2cccc(OCc3cccnn3)n2)nc(C(N)=O)c1N (atropisomer, axis not shown) [Compound 260] ?
stdout: 8.40

stdin: Thanks! And Cc1ccc(O)cc1-c1nc(-c2ccn(C)n2)nc(C(N)=O)c1N ?
stdout: 6.78

stdin: Thanks! And CNc1ccccc1-c1nc(C(N)=O)c(N)c(-c2c(C)ccc3[nH]ncc23)n1 ?
stdout: 7.55

stdin: Thanks! And Cc1ccc(O)c(C)c1-c1cc(-c2ccnc(N)c2)nc(C(N)=O)c1N [Compound 14] ?
stdout: 8.40

stdin: Thanks! And Cc1ccc2[nH]ncc2c1-c1nc(-c2cccc3ccsc23)nc(C(N)=O)c1N ?
stdout: 7.85

stdin: Thanks! And Cc1ccc2[nH]ncc2c1-c1cc(-c2ccnc(OCCc3cnccn3)n2)nc(C(N)=O)c1N ?
stdout: 7.85

stdin: Thanks! And Cc1ccc2[nH]ncc2c1-c1nc(-c2ccccc2NC(=O)C2(C)CC2(F)F)nc(C(N)=O)c1N (stereo not shown) ?
stdout: 8.52

stdin: Thanks! And NC(=O)c1nc(-c2ccccc2)nc(-c2cccc3[nH]nc(F)c23)c1N ?
stdout: 7.00

stdin: Thanks! And Cc1ccc2[nH]ncc2c1-c1nc(-c2cc(F)ccc2NS(=O)(=O)C2(C)CC2)nc(C(N)=O)c1N ?
stdout: 8.30

stdin: Thanks! And Cc1ccc2[nH]ncc2c1-c1nc(-c2cccc3nnsc23)nc(C(N)=O)c1N ?
stdout: 8.30

stdin: Thanks! And Cc1ccc2[nH]ncc2c1-c1cc(-c2cccc(OCC3(N)CC3)n2)nc(C(N)=O)c1N [Compound 353] ?
stdout: 8.15

stdin: Thanks! And NC(=O)c1nc(-c2ccccc2)nc(-c2ccc(F)c3[nH]ncc23)c1N ?
stdout: 7.31

stdin: Thanks! And Cc1ccc2[nH]ncc2c1-c1nc(-c2cccnc2)nc(C(N)=O)c1N ?
stdout: 7.23

stdin: Thanks! And Cc1ccc2[nH]ncc2c1-c1nc(-c2ccccc2NC(=O)C2(Cl)CC2)nc(C(N)=O)c1N ?
stdout: 8.40

stdin: Thanks! And COc1cccc(-c2cc(-c3c(C)ccc(O)c3C)c(N)c(C(N)=O)n2)n1 [Compound 62] ?
stdout: 8.10

stdin: Thanks! And Cc1ccc2[nH]ncc2c1-c1nc(-c2cccc(CC#N)c2)nc(C(N)=O)c1N ?
stdout: 8.10

stdin: Thanks! And NC(=O)c1nc(-c2cc(F)c(F)cc2NCC(F)F)nc(-c2c(Cl)ccc3[nH]ncc23)c1N ?
stdout: 8.22

stdin: Thanks! And Cc1ccc2[nH]ncc2c1-c1nc(-c2cccnc2N[C@@H]2CCO[C@@H](C)C2)nc(C(N)=O)c1N ?
stdout: 8.40

stdin: Thanks! And Cc1ccc2[nH]ncc2c1-c1nc(-c2cc(F)c(F)cc2NC2CC(F)(F)C2)nc(C(N)=O)c1N ?
stdout: 7.85

stdin: Thanks! And Cc1ccc2[nH]ncc2c1-c1nc(-c2cccc(N(C)C)c2)nc(C(N)=O)c1N ?
stdout: 7.24

stdin: Thanks! And Cc1ccc2[nH]ncc2c1-c1cc(-c2ccnc(OCc3ccccn3)n2)nc(C(N)=O)c1N ?
stdout: 8.40

stdin: Thanks! And Cc1ccc2[nH]ncc2c1-c1nc(-c2ccc(OC3CCOCC3)c(C#N)c2)nc(C(N)=O)c1N ?
stdout: 6.51

stdin: Thanks! And Cc1ccc2[nH]ncc2c1-c1cc(-c2ccnc(OCc3ccncc3)n2)nc(C(N)=O)c1N ?
stdout: 8.40

stdin: Thanks! And Cc1ccc2[nH]ncc2c1-c1cc(-c2cccc(F)n2)nc(C(N)=O)c1N ?
stdout: 8.00

stdin: Thanks! And Cc1ccc2[nH]ncc2c1-c1cc(-c2ccc(OC3COC3)nc2)nc(C(N)=O)c1N ?
stdout: 7.04

stdin: Thanks! And Cc1ccc2[nH]ncc2c1-c1c(N)c(C(N)=O)cc2c1oc1ccccc12 ?
stdout: 7.57

stdin: Thanks! And Cc1ncc(C#N)c(Nc2cc(F)ccc2-c2nc(C(N)=O)c(N)c(-c3c(C)ccc4[nH]ncc34)n2)n1 ?
stdout: 8.52

stdin: Thanks! And Cc1csc(-c2nc(C(N)=O)c(N)c(-c3c(C)ccc4[nH]ncc34)n2)c1 ?
stdout: 7.16
